procedureDetails: basal RPMI8226 mitochondrial membrane potential changes, profiling panel, cell-based, JC-1 fluorescence, 24 h, 100 nL compound (AID 1169); also: test concentration not given here
conditionDescription: RPMI8226 myeloma, JC-1 mitochondrial potential fluorescence, higher = more signal
z-score by entry:
Provide a numeric answer; units are not to be included.

As a guide, the following entries are already answered.
input: Return z-score (reported value) for this compound: O=C1NC(=O)C2C1C=CC(C(O)c1c(F)cccc1Cl)N2Nc1ccccn1 (stereo not given)
output: -0.517

input: Return z-score (reported value) for this compound: CCCCN1CC=CC23O[C@@H]4C=CCOC(=O)[C@@H]4[C@H]2C(=O)N(CCCO)[C@@H]3C1=O (stereo not given in full)
output: -0.702

input: Return z-score (reported value) for this compound: CN(C)C(=O)[C@@]1(Cc2ccccc2N=[N+]=[N-])COC(c2ccc(OCCCO)cc2)=N1
output: -0.934

Next:
input: Return z-score (reported value) for this compound: CC(C)N1CC=CC23O[C@@H]4C=CCOC(=O)[C@@H]4[C@H]2C(=O)N(C(C)CO)[C@@H]3C1=O (stereo not given in full)
output: -0.166

input: Return z-score (reported value) for this compound: C=C(C(=O)CC[C@H](OC(=O)c1cccnc1)c1ccc(CO)o1)C(C)C
output: 0.322
